# TESTED TARGET: KRAS G13C (Homo sapiens, UniProt P01116+P62937, G13C)
# Sequence (P01116 1-169 isoform P01116-2 G13C limits assumed, one chain of several): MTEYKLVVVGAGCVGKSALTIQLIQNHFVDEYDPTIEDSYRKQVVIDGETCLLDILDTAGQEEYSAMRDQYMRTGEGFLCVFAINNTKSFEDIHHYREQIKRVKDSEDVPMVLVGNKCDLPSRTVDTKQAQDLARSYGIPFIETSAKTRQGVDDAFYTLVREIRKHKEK
# TEST METHOD NOTES: Ras-Raf disruption / FRET / MOA assay (BRAF RBD)
# Format: biochemical
# ASSAY CONDITIONS: Ras-Raf disruption, with Cyclophilin A; read-out: KRAS G13C FRET data IC50
pIC50: −log10 of the molar value.
Exercise: state measured pIC50 for each of the compounds provided.

Some compounds with known pIC50 results, for comparison:
Report pIC50 for CCn1c(-c2cccnc2[C@H](C)OC)c2c3cc(ccc31)-c1cc(O)cc(c1)C[C@H](NC(=O)[C@H](C(C)C)N(C)C(=O)C1CCN(C(=O)[C@H]3CN3)CC1)C(=O)N1CCC[C@H](N1)C(=O)OCC(C)(C)C2 7.00 to 8.00

Give pIC50 for CCn1c(-c2cccnc2[C@H](C)OC)c2c3cc(ccc31)-c1cccc(c1)C[C@H](NC(=O)[C@H](C(C)C)N(C)C(=O)CCN=C=NCCOC)C(=O)N1CCC[C@H](N1)C(=O)OCC(C)(C)C2 6.00 to 7.00

Please supply the value of reported pIC50 for the item CCn1c(-c2cccnc2[C@H](C)OC)c2c3cc(ccc31)-c1cc(O)cc(c1)C[C@H](NC(=O)[C@H](C(C)C)N(C)C(=O)c1ccc([C@@H]3CN3)nc1)C(=O)N1CCC[C@H](N1)C(=O)OCC(C)(C)C2 7.00 to 8.00

Provide each entry's pIC50 from the list below.
1. CCn1c(-c2cccnc2[C@H](C)OC)c2c3cc(ccc31)-c1cc(O)cc(c1)C[C@H](NC(=O)[C@H](C(C)C)N(C)C(=O)[C@H]1C[C@H](NC(=O)[C@@H]3CN3)C1)C(=O)N1CCC[C@H](N1)C(=O)OCC(C)(C)C2
2. CCn1c(-c2cccnc2[C@H](C)OC)c2c3cc(ccc31)-c1csc(n1)C[C@H](NC(=O)[C@H](C(C)C)N(C)C(=O)N1CCN(C(=O)[C@H]3CN3)[C@@H](C)C1)C(=O)N1CCC[C@H](N1)C(=O)OCC(C)(C)C2
3. CCCN=C=NCCC(=O)N(C)[C@H](C(=O)N[C@H]1Cc2cccc(c2)-c2ccc3c(c2)c(c(-c2cnccc2COC)n3CC)CC(C)(C)COC(=O)[C@@H]2CCCN(N2)C1=O)C(C)C
4. CCn1c(-c2cccnc2[C@H](C)OC)c2c3cc(ccc31)-c1csc(n1)C[C@H](NC(=O)[C@H](C(C)C)N(C)C(=O)N1CC[C@H](N(C)C(=O)[C@@H]3CN3)C1)C(=O)N1CCC[C@H](N1)C(=O)OCC(C)(C)C2 (atropisomer, axis not shown)

7.00 to 8.00
7.00 to 8.00
6.00 to 7.00
6.00 to 7.00

###

Kindly state pIC50 for each of the entries shown.
# TESTED TARGET: KRAS G13D (Homo sapiens, UniProt P01116+P62937, G13D)
# Sequence (P01116 1-169 isoform P01116-2 G13D limits assumed): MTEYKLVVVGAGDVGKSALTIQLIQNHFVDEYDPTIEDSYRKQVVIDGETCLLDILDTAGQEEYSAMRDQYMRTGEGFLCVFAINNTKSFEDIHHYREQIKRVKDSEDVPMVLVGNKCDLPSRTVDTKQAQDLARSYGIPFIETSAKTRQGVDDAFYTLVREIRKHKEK
# Sequence (P62937 whole entry): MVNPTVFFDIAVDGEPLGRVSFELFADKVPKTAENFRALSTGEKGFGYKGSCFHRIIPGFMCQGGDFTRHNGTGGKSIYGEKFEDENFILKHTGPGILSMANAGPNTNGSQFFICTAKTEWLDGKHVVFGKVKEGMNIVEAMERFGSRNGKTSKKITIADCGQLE
# TEST METHOD NOTES: Disruption of BRAF RBD interaction with Ras (FRET / MOA assay, with Cyclophilin A)
# Assay type: biochemical
# ASSAY CONDITIONS: KRAS G13D; read-out: KRAS G13D FRET data IC50
pIC50: −log10 of the molar value.

Check the records and state pIC50 for CCn1c(-c2cccnc2[C@H](C)OC)c2c3cc(ccc31)-c1csc(n1)C[C@H](NC(=O)[C@H](C(C)C)N(C)C(=O)N1[C@H](C)CN(C)C[C@H]1C)C(=O)N1CCC[C@H](N1)C(=O)OCC(C)(C)C2 6.00 to 7.00

We now examine a further molecule.
Give the reported value of pIC50 for this record: CCn1c(-c2cccnc2[C@H](C)OC)c2c3cc(ccc31)-c1csc(n1)C[C@H](NC(=O)[C@H](C(C)C)N(C)C(=O)N1CCN3CCOC[C@@H]3C1)C(=O)N1CCC[C@H](N1)C(=O)OCC(C)(C)C2 5.00 to 6.00

###

# TESTED TARGET: KRAS G12S (Homo sapiens, UniProt P01116+P62937, G12S)
# Sequence (P01116 1-169 isoform P01116-2 G12S limits assumed, one chain of several): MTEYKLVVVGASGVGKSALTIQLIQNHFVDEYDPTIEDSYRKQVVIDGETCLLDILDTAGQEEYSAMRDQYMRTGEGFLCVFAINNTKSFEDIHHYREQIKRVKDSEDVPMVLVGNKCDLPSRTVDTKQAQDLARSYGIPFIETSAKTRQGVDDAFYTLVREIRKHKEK
# TEST METHOD NOTES: Ras-Raf disruption / FRET / MOA assay (BRAF RBD)
# Format: biochemical
# ASSAY CONDITIONS: KRAS G12S FRET data IC50, Ras-Raf disruption, with Cyclophilin A
I'd be grateful if you could share measured IC50 for these entries.

The following compounds have reported results that may help.
Please supply the value of reported IC50 for the item CCn1c(-c2cccnc2[C@H](C)OC)c2c3cc(ccc31)-c1cc(O)cc(c1)C[C@H](NC(=O)[C@H](C(C)C)N(C)C(=O)CN(C)C(=O)[C@H]1CN1CC(=O)N(C)C)C(=O)N1CCC[C@H](N1)C(=O)OCC(C)(C)C2 (stereo partly shown) 10 to 100 nM

Indicate its recorded IC50; the compound in question is CCn1c(-c2cccnc2[C@H](C)OC)c2c3cc(ccc31)-c1cc(O)cc(c1)C[C@H](NC(=O)[C@H](C(C)C)N(C)C(=O)CN(C)C(=O)[C@@H]1N[C@@H]1C1COC1)C(=O)N1CCC[C@H](N1)C(=O)OCC(C)(C)C2 < 10 nM

Quick batch: IC50 for everything below.
1. CCn1c(-c2cccnc2[C@H](C)OC)c2c3cc(ccc31)-c1cc(O)cc(c1)C[C@H](NC(=O)[C@H](C(C)C)N(C)C(=O)CN(C)C(=O)[C@@H]1N[C@@H]1C(C)C)C(=O)N1CCC[C@H](N1)C(=O)OCC(C)(C)C2
2. CCn1c(-c2cccnc2[C@H](C)OC)c2c3cc(ccc31)-c1cc(O)cc(c1)C[C@H](NC(=O)[C@H](C(C)C)N(C)C(=O)CN(C)C(=O)[C@H]1CN1CC1COC1)C(=O)N1CCC[C@H](N1)C(=O)OCC(C)(C)C2 (stereo partly shown)
3. CCn1c(-c2cccnc2[C@H](C)OC)c2c3cc(ccc31)-c1cc(O)cc(c1)C[C@H](NC(=O)[C@H](C(C)C)N(C)C(=O)[C@H]1CCCN1C(=O)[C@@H]1CN1)C(=O)N1CCC[C@H](N1)C(=O)OCC(C)(C)C2
4. CCn1c(-c2cccnc2[C@H](C)OC)c2c3cc(ccc31)-c1cc(O)cc(c1)C[C@H](NC(=O)[C@H](C(C)C)N(C)C(=O)CN(C)C(=O)[C@@H]1N[C@H]1C(F)(F)F)C(=O)N1CCC[C@H](N1)C(=O)OCC(C)(C)C2
5. CCn1c(-c2cccnc2[C@H](C)OC)c2c3cc(ccc31)-c1cc(O)cc(c1)C[C@H](NC(=O)[C@H](C1CCCC1)N(C)C(=O)CN(C)C(=O)[C@H]1N[C@H]1C1(C#N)CC1)C(=O)N1CCC[C@H](N1)C(=O)OCC(C)(C)C2

1: < 10 nM; 2: 10 to 100 nM; 3: 100 to 1000 nM; 4: 10 to 100 nM; 5: 10 to 100 nM

Provide IC50 for all items below, preserving their order.
1. CCn1c(-c2cccnc2[C@H](C)OC)c2c3cc(ccc31)-c1cc(O)cc(c1)C[C@H](NC(=O)[C@H](C1CCCC1)N(C)C(=O)[C@H](C)N(C)C(=O)[C@@H]1N[C@@H]1C1CC1)C(=O)N1CCC[C@H](N1)C(=O)OCC(C)(C)C2
2. CCn1c(-c2cccnc2[C@H](C)OC)c2c3cc(ccc31)-c1cc(O)cc(c1)C[C@H](NC(=O)[C@H](C(C)C)N(C)C(=O)CNC(=O)[C@@H]1N[C@@H]1C1CC1)C(=O)N1CCC[C@H](N1)C(=O)OCC(C)(C)C2
3. CCn1c(-c2cccnc2[C@H](C)OC)c2c3cc(ccc31)-c1cc(O)cc(c1)C[C@H](NC(=O)[C@H](C(C)C)N(C)C(=O)CN(C)C(=O)[C@@H]1N[C@@H]1C(F)(F)F)C(=O)N1CCC[C@H](N1)C(=O)OCC(C)(C)C2
4. CCn1c(-c2cccnc2[C@H](C)OC)c2c3cc(ccc31)-c1cc(O)cc(c1)C[C@H](NC(=O)[C@H](C(C)C)N(C)C(=O)CN(C)C(=O)[C@@H]1CN1CCCOC)C(=O)N1CCC[C@H](N1)C(=O)OCC(C)(C)C2 (stereo partly shown)

["10 to 100 nM", "10 to 100 nM", "10 to 100 nM", "10 to 100 nM"]

I need IC50 for every entry listed below, if you could help.
1. CCn1c(-c2cccnc2[C@H](C)OC)c2c3cc(ccc31)-c1cc(O)cc(c1)C[C@H](NC(=O)[C@H](C(C)C)N(C)C(=O)[C@]13C[C@H]1CCN3C(=O)[C@@H]1CN1)C(=O)N1CCC[C@H](N1)C(=O)OCC(C)(C)C2
2. CCn1c(-c2cccnc2[C@H](C)OC)c2c3cc(ccc31)-c1cc(O)cc(c1)C[C@H](NC(=O)[C@H](C(C)C)N(C)C(=O)CN(C)C(=O)[C@@H]1CN1C(C)C)C(=O)N1CCC[C@H](N1)C(=O)OCC(C)(C)C2 (stereo partly shown)
3. CCn1c(-c2cccnc2[C@H](C)OC)c2c3cc(ccc31)-c1cc(O)cc(c1)C[C@H](NC(=O)[C@H](C1CCCC1)N(C)C(=O)CN(C)C(=O)[C@@H]1N[C@@H]1C1(OC)CC1)C(=O)N1CCC[C@H](N1)C(=O)OCC(C)(C)C2 (single isomer, unassigned)
4. CCn1c(-c2cccnc2[C@H](C)OC)c2c3cc(ccc31)-c1cc(O)cc(c1)C[C@H](NC(=O)[C@H](C(C)C)N(C)C(=O)CN(C)C(=O)[C@@H]1N[C@H]1C1COC1)C(=O)N1CCC[C@H](N1)C(=O)OCC(C)(C)C2
5. CCn1c(-c2cc(N3CCN(C)CC3)cnc2[C@H](C)OC)c2c3cc(ccc31)-c1cc(O)cc(c1)C[C@H](NC(=O)[C@H](C1CCCC1)N(C)C(=O)CN(C)C(=O)[C@H]1CN1)C(=O)N1CCC[C@H](N1)C(=O)OCC(C)(C)C2

1: 100 to 1000 nM; 2: 10 to 100 nM; 3: 10 to 100 nM; 4: 10 to 100 nM; 5: 10 to 100 nM

Source listed as patent US20230233569A1.
